EXPERIMENT: Approximate solubility of pomalidomide at 50°C in 96 solvent compositions (LC)
Format: physicochemical
CONDITION_DESCRIPTION: binary solvent mixture (main solvent and co-solvent), 50 °C, organic solvent or mixture, thermodynamic from solid, solvent system E7 of Table 7, read-out: Approximate Measured Solubility
ENDPOINT_NAME: solubility at 2 h (µg/mL)
Kindly answer with a numeric value in µg/mL, unit omitted.

Task item: May I ask what solubility at 2 h has been recorded for Nc1cccc2c1C(=O)N(C1CCC(=O)NC1=O)C2=O (stereo not shown) [Pomalidomide] ?
Reply: 20

----------
EXPERIMENT: Approximate solubility of pomalidomide at 50°C in 96 solvent compositions (LC)
Assay type: physicochemical
CONDITION_DESCRIPTION: binary solvent composition (main solvent and co-solvent), 50 °C, organic solvent or mixture, thermodynamic from solid, solvent system C3 of Table 7, read-out: Approximate Measured Solubility
ENDPOINT_NAME: solubility at 2 h (mg/mL)
Dear colleague, please return just the value in mg/mL, with no unit written.

Task item: // solubility at 2 h lookup, key: Nc1cccc2c1C(=O)N(C1CCC(=O)NC1=O)C2=O (stereo not shown) [Pomalidomide]
Reply: 1.67

----------
EXPERIMENT: Approximate solubility of pomalidomide at 50°C in 96 solvent compositions (LC)
Type: physicochemical
CONDITION_DESCRIPTION: binary solvent mixture (main solvent and co-solvent), 50 °C, organic solvent or mixture, thermodynamic from solid, solvent system E10 of Table 7, read-out: Approximate Measured Solubility
ENDPOINT_NAME: solubility at 2 h (µg/mL)
Reply numerically in µg/mL, unit not repeated.

Task item: Field request: solubility at 2 h | item: Nc1cccc2c1C(=O)N(C1CCC(=O)NC1=O)C2=O (stereo not shown) [Pomalidomide]
Reply: 2310

----------
EXPERIMENT: Approximate solubility of pomalidomide at 50°C in 96 solvent compositions (LC)
Format: physicochemical
CONDITION_DESCRIPTION: solvent system A10 of Table 7, 50 °C, organic solvent or mixture, thermodynamic from solid, solvent system A10 of Table 7, read-out: Approximate Measured Solubility
ENDPOINT_NAME: solubility at 2 h (µg/mL)
Reply numerically in µg/mL, unit not repeated.

Task item: Name the reported solubility at 2 h value associated with the compound Nc1cccc2c1C(=O)N(C1CCC(=O)NC1=O)C2=O (stereo not shown) [Pomalidomide]
Reply: 1830

----------
EXPERIMENT: Approximate solubility of pomalidomide at 50°C in 96 solvent compositions (LC)
Format: physicochemical
CONDITION_DESCRIPTION: binary solvent mixture (main solvent and co-solvent), 50 °C, organic solvent or mixture, thermodynamic from solid, solvent system G2 of Table 7, read-out: Approximate Measured Solubility
ENDPOINT_NAME: solubility at 2 h (µg/mL)
// units = µg/mL; emit number, no label

Task item: Could you tell me which solubility at 2 h is on file for Nc1cccc2c1C(=O)N(C1CCC(=O)NC1=O)C2=O (stereo not shown) [Pomalidomide] ?
Reply: 1650

----------
EXPERIMENT: Approximate solubility of pomalidomide at 50°C in 96 solvent compositions (LC)
Format: physicochemical
CONDITION_DESCRIPTION: solvent system A11 of Table 7, 50 °C, organic solvent or mixture, thermodynamic from solid, solvent system A11 of Table 7, read-out: Approximate Measured Solubility
ENDPOINT_NAME: solubility at 2 h (µg/mL)
I only need the number, in µg/mL, no unit after it.

Task item: Which solubility at 2 h value belongs to Nc1cccc2c1C(=O)N(C1CCC(=O)NC1=O)C2=O (stereo not shown) [Pomalidomide] ?
Reply: 290

----------
EXPERIMENT: Approximate solubility of pomalidomide at 50°C in 96 solvent compositions (LC)
Format: physicochemical
CONDITION_DESCRIPTION: binary solvent composition (main solvent and co-solvent), 50 °C, organic solvent or mixture, thermodynamic from solid, solvent system A8 of Table 7, read-out: Approximate Measured Solubility
ENDPOINT_NAME: solubility at 2 h
Your reply should be a number followed by the unit it is expressed in.

Task item: Look up solubility at 2 h: Nc1cccc2c1C(=O)N(C1CCC(=O)NC1=O)C2=O (stereo not shown) [Pomalidomide]
Reply: 7940 µg/mL

----------
EXPERIMENT: physchem
CONDITION_DESCRIPTION: ethanol, 25 °C, organic solvent or mixture, thermodynamic from solid
ENDPOINT_NAME: solubility

Task item: May I ask what solubility has been recorded for N#Cc1ccc([C@H]2CCc3cncn32)c(F)c1 ?
Reply: > 50 mg/mL

----------
EXPERIMENT: Solubility of pomalidomide in various solvents
Assay type: physicochemical
CONDITION_DESCRIPTION: acetonitrile, 25 °C, organic solvent or mixture, thermodynamic from solid, Acetonitrile; ambient temperature; read-out: Solubility
ENDPOINT_NAME: solubility (mg/mL)
Give a bare numeral; the unit mg/mL is implied.

Task item: Which solubility value belongs to Nc1cccc2c1C(=O)N(C1CCC(=O)NC1=O)C2=O (stereo not shown) [Pomalidomide] ?
Reply: 1.27

----------
EXPERIMENT: Approximate solubility of pomalidomide at 50°C in 96 solvent compositions (LC)
Format: physicochemical
CONDITION_DESCRIPTION: binary solvent mixture (main solvent and co-solvent), 50 °C, organic solvent or mixture, thermodynamic from solid, solvent system H8 of Table 7, read-out: Approximate Measured Solubility
ENDPOINT_NAME: solubility at 2 h
Express your answer as a number followed by its unit.

Task item: Which solubility at 2 h value is on record for Nc1cccc2c1C(=O)N(C1CCC(=O)NC1=O)C2=O (stereo not shown) [Pomalidomide] ?
Reply: 400 µg/mL

----------
EXPERIMENT: Approximate solubility of pomalidomide at 50°C in 96 solvent compositions (LC)
Type: physicochemical
CONDITION_DESCRIPTION: binary solvent mixture (main solvent and co-solvent), 50 °C, organic solvent or mixture, thermodynamic from solid, solvent system F4 of Table 7, read-out: Approximate Measured Solubility
ENDPOINT_NAME: solubility at 2 h
Entry format: amount then unit.

Task item: Name the recorded solubility at 2 h for Nc1cccc2c1C(=O)N(C1CCC(=O)NC1=O)C2=O (stereo not shown) [Pomalidomide] .
Reply: 10 µg/mL

----------
EXPERIMENT: Approximate solubility of pomalidomide at 50°C in 96 solvent compositions (LC)
Type: physicochemical
CONDITION_DESCRIPTION: binary solvent mixture (main solvent and co-solvent), 50 °C, organic solvent or mixture, thermodynamic from solid, solvent system G4 of Table 7, read-out: Approximate Measured Solubility
ENDPOINT_NAME: solubility at 2 h (µg/mL)
Kindly provide the numeric value in µg/mL only, without the unit symbol.

Task item: Tell me the measured solubility at 2 h of Nc1cccc2c1C(=O)N(C1CCC(=O)NC1=O)C2=O (stereo not shown) [Pomalidomide] , please.
Reply: 230

----------
EXPERIMENT: Approximate solubility of pomalidomide at 50°C in 96 solvent compositions (LC)
Type: physicochemical
CONDITION_DESCRIPTION: binary solvent mixture (main solvent and co-solvent), 50 °C, organic solvent or mixture, thermodynamic from solid, solvent system F3 of Table 7, read-out: Approximate Measured Solubility
ENDPOINT_NAME: solubility at 2 h (µg/mL)
The figure you give is taken to be in µg/mL; do not add the unit.

Task item: What value of solubility at 2 h has been recorded for this entry: Nc1cccc2c1C(=O)N(C1CCC(=O)NC1=O)C2=O (stereo not shown) [Pomalidomide]
Reply: 30

----------
EXPERIMENT: Approximate solubility of pomalidomide at 50°C in 96 solvent compositions (LC)
Assay type: physicochemical
CONDITION_DESCRIPTION: binary solvent composition (main solvent and co-solvent), 50 °C, organic solvent or mixture, thermodynamic from solid, solvent system D12 of Table 7, read-out: Approximate Measured Solubility
ENDPOINT_NAME: solubility at 2 h

Task item: Bench note: what solubility at 2 h did Nc1cccc2c1C(=O)N(C1CCC(=O)NC1=O)C2=O (stereo not shown) [Pomalidomide] show?
Reply: 670 µg/mL

----------
EXPERIMENT: Approximate solubility of pomalidomide at 50°C in 96 solvent compositions (LC)
Assay type: physicochemical
CONDITION_DESCRIPTION: binary solvent composition (main solvent and co-solvent), 50 °C, organic solvent or mixture, thermodynamic from solid, solvent system D4 of Table 7, read-out: Approximate Measured Solubility
ENDPOINT_NAME: solubility at 2 h (µg/mL)
Write down the numeric answer in µg/mL and omit the unit.

Task item: Requested read-out: solubility at 2 h. Entry: Nc1cccc2c1C(=O)N(C1CCC(=O)NC1=O)C2=O (stereo not shown) [Pomalidomide]
Reply: 2500

----------
EXPERIMENT: Approximate solubility of pomalidomide at 50°C in 96 solvent compositions (LC)
Type: physicochemical
CONDITION_DESCRIPTION: binary solvent composition (main solvent and co-solvent), 50 °C, organic solvent or mixture, thermodynamic from solid, solvent system B7 of Table 7, read-out: Approximate Measured Solubility
ENDPOINT_NAME: solubility at 2 h (µg/mL)
Answer in µg/mL, number only, no unit symbol.

Task item: Given Nc1cccc2c1C(=O)N(C1CCC(=O)NC1=O)C2=O (stereo not shown) [Pomalidomide] , state its recorded solubility at 2 h.
Reply: 3160
